system: SK-MEL-5; test: NCI tumour cell line growth inhibition, 48 h
The source made the active and inactive calls. No stated cut-off is given here; in the data, active = GI50 up to about 1.1 µM and inactive = higher.
Provide the reported GI50 of each item.

Consider the reported GI50 for these compounds:
Compound: Cc1ccc(S(=O)(=O)N2CCC(C(=O)O)(c3ccccc3)CC2)cc1
GI50: > 100 µM (inactive)
//
Compound: O=C1c2cccc3cc4ccccc4c(c23)C(=O)N1CCNCCNCCNCCN1C(=O)c2cccc3cc4ccccc4c(c23)C1=O
GI50: 0.0243 µM (active)
//
Compound: Cc1sc2nc3n(c(=O)c2c1C)N=C(c1ccc([N+](=O)[O-])cc1)CS3
GI50: > 100 µM (inactive)
//
Compound: COc1cc(/C=C(\C#N)C(=O)c2ccccc2)ccc1OCc1ccccc1
GI50: > 100 µM (inactive)
//
Compound: CC(C)CC(NC(O)[BH2-][N+](C)(C)C)C(=O)NC(Cc1ccccc1)C(=O)N[C@H]1c2ccsc2/C(=N/O)[C@H]1O (stereo partly specified)
GI50: > 100 µM (inactive)

Give GI50 for all compounds that follow.
1. CN1CCc2c(sc3ncn(C)c(=N)c23)C1
2. O=c1[c-](-c2ccccc2)[se]c(-c2ccccc2)[n+]1-c1ccccc1
3. NC(=O)C(=CN1C(=O)CC(=O)NC1=S)C(N)=O
4. O=C1CCCC(=O)N1n1c(Cc2ccc(Cl)cc2)n[nH]c1=O
5. NS(=O)(=O)c1ccc(NCc2cnc3ccccc3n2)cc1
6. O=c1c(C(c2ccc(O)cc2)c2c(O)oc3ccccc3c2=O)c(O)oc2ccccc12
7. COc1ccc2nc3cc(Cl)ccc3c(NCCCNCCCNc3c4ccc(Cl)cc4nc4ccc(OC)cc34)c2c1
8. COC(=O)C1=C(OC(=O)/C=C/c2ccccc2)C(C(=O)OC)[C@@]2(O)[C@@H](C(=O)OC)[C@H](C)C[C@@H]1[C@@H]2C(=O)OC (stereo partly specified)

### Response
["> 100 µM (inactive)", "13 µM (inactive)", "> 100 µM (inactive)", "> 100 µM (inactive)", "> 100 µM (inactive)", "83.8 µM (inactive)", "0.0247 µM (active)", "26.9 µM (inactive)"]

* * *

system: HT-29; test: NCI tumour cell line growth inhibition, 48 h
Activity calls are given as the source filed them. Rule as the data show it: active = GI50 up to about 1.1 µM and inactive = higher.
Can you tell me GI50 for the items I'm about to list?

Molecule: NC(=O)NN=C1Cc2ccccc2C1
GI50: > 100 µM (inactive)

Would you mind giving GI50 for every molecule in the list below?
1. COc1ccc(C#Cn2nnc3ccccc32)cc1
2. NC(=O)C(=CN1C(=O)CC(=O)NC1=S)C(N)=O
3. COC(=O)c1cc2ccc(O)c(O)c2cn1
4. CNC(=O)SCC(N)C(=O)O (configuration not stated)
5. COc1c2c(cc3nc4ccccc4nc13)CC[C@H](NC(C)=O)c1cc(=O)c(SC)ccc1-2
6. C/C(=N\Nc1nc2ccccc2o1)c1cc(C)ncn1

### Response
> 100 µM (inactive)
> 100 µM (inactive)
> 10 µM (inactive)
> 71.3 µM (inactive)
1.04 µM (active)
< 0.01 µM (active)

* * *

test system: HCT-15
Reported metric: GI50

Molecule: O=C(Cn1c2c(c3ccccc31)CCCC2)NC1CCCCC1
System tested: HCT-15
Endpoint result: > 100 µM

Molecule: CC1=C(C(=O)Nc2ccccc2C)C(/C=C/c2ccccc2)C(C(=O)Nc2ccccc2C)=C(C)N1
System tested: HCT-15
Endpoint result: > 100 µM

Report GI50 for each item below.
1. CC(C)(C)N1Cc2ccccc2/C(=C/Sc2ccccc2)C1=O
2. O=C(OC1C(Oc2ccccc2COC(=O)C2(O)C=CCCC2=O)OC(CO)C(O)C1O)c1ccccc1 (centres undefined)

### Response
["12.9 µM", "28.2 µM"]
